- Assay: Inhibition of wild type ATG12-ATG3 protein protein interaction (unknown origin) expressed in HEK293T cells preincubated for ATG12 for 1 hr followed by ATG3 addition by luminescence based microplate analysis
- Type: cell-based, Homo sapiens
Measurement label: pIC50
Conceptually, pIC50 converts a concentration in mol/L into minus its log10.

The molecule listed as `O=C(O)c1ccc2ccc(Nc3cccc(Cl)c3)nc2c1` shows pIC50 equal to 4.30

CC1=CN2C(Nc3cccc(Cl)c3)=Nc3cc(-c4nnn[nH]4)ccc3C2N1 (stereo unspecified) has a reported pIC50 of 4.14

# molecule `Cc1cn2c(Nc3cccc(C(F)(F)F)c3)nc3cc(C(=O)O)ccc3c2n1` ; its pIC50 = 4.52

Query `O=c1[nH]nc(-c2ccc3c(c2)nc(Nc2cccc(Cl)c2)c2cccnc23)o1` yields pIC50 of 4.14

The recorded pIC50 for `Cc1cn2c(Nc3cccc(C(C)C)c3)nc3cc(C(=O)O)ccc3c2n1` is 4.39

Consider `O=C(O)c1ccc2c(c1)nc(Oc1cccc(Cl)c1)c1ccncc12` . Its measured pIC50 is 4.29

Value of pIC50 reported for the molecule `O=C(O)c1ccc2c(c1)nc(Nc1cccc(Cl)c1)c1cnccc12` is 5.00

Data point: O=C(O)c1ccc2c(c1)nc(Nc1cccc(Cl)c1)c1ccncc12 [SILMITASERTIB] ; pIC50 = 4.57

Note to self: pIC50 recorded for `Cc1cn2c(Nc3cccc(Cl)c3)nc3cc(C(=O)O)ccc3c2n1` was 5.10

Recorded pIC50 (molecule `Cc1cn2c(Nc3cccc(OC(F)(F)F)c3)nc3cc(C(=O)O)ccc3c2n1` ): 4.43

Entry `Cc1cnc2c3ccc(C(=O)O)cc3nc(Nc3cccc(Cl)c3)n12` , pIC50 reported as 4.62

The recorded pIC50 for entry `Cn1ncc2c(Nc3cccc(Cl)c3)nc3cc(C(=O)O)ccc3c21` equals 4.38

Value of measured pIC50 for the entry `O=C(O)c1ccc2c(c1)nc(Nc1cccc(Cl)c1)c1ncsc12` : 4.80

pIC50 reading for `O=C(O)c1ccc2c(c1)N=C(Nc1cccc(Cl)c1)N1CCN=C21` : 4.22

Entry `CC(=O)Oc1ccc(COC(=O)c2ccc3c(c2)nc(Nc2cccc(Cl)c2)c2cccnc23)cc1` — recorded pIC50 = 4.28

Per the record, `Cc1cn2c(Nc3cccc(C(C)(C)C)c3)nc3cc(C(=O)O)ccc3c2n1` has pIC50 of 4.62

For record `O=C(O)c1ccc2c(c1)nc(Nc1cccc(Cl)c1)n1cc(Cc3ccccc3)nc21` the listed pIC50 is 4.85

So for `Cc1cn2c(Nc3cccc(C#N)c3)nc3cc(C(=O)O)ccc3c2n1` , the logged pIC50 turned out to be 5.10
